# Target or test system: T1, CD19 antigen on Daudi lymphoma cells (human, UniProt P15391 20-556)
# T1 construct: whole, on cells; also called Daudi cells
# T1 sequence (looked up): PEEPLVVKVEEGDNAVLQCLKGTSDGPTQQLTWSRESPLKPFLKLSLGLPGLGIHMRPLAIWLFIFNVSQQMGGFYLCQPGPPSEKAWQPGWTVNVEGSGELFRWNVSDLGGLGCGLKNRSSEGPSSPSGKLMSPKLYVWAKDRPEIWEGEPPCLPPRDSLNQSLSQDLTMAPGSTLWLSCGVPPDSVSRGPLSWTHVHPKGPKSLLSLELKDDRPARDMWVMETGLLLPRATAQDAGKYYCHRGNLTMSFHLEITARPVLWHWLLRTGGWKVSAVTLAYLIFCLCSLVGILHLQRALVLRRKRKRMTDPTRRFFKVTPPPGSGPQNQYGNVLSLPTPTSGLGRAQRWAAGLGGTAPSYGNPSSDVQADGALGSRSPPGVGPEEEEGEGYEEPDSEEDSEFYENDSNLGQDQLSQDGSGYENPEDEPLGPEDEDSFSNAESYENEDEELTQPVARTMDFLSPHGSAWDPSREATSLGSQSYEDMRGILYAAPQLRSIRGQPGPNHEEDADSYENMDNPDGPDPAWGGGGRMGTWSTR
# Method description: FACS competition on Daudi cells; unlabeled antibody 100 ng/ml (1x) vs competitor biotin-B4 VH0/VK0 100 ng/ml
A collection of binders and their measured % inhibition of labeled B4 binding
Readout kind: % inhibition of labeled B4 binding

[
  {
    "Binder": "B4 VHv3/VKv4 antibody (antibody, V domains shown) VH: QVQLEQPGAEVKKPGASVKVSCKASGYTFTSNWMHWVKQRPGQGLEWIGEIDPSDSYTNYNQKFKGKAKLTVDKSSSTAYMEVSDLTAEDSAVYYCARGSNPYYYAMDYWGQGTSVTVSS VL: QIVLTQSPATLSASPGEKATMTCSASSGVNYMHWYQQKPGTSPKRWIYDTDKTASGVPARFSGSGSGTSYSLTISSMEAEDAATYYCHQRGSYTFGGGTKLEIK",
    "Experimental result": "20%"
  },
  {
    "Binder": "B4 VHv1/VKv1 antibody (antibody, V domains shown) VH: QVQLQQPGAEVVKPGASVRLSCETSGYTFTSNWMHWVKQRPDQGLEWIGEIDPSDSYTNYNQKFKGKAELTVDKSSSTAYMEVSDLTSEDSAVYYCARGSNPYYYAMDYWGQGTSVTVSS VL: QIALTQEPAIMSASPGEKVTMTCSASSGVNYMHWYQQKPGTSPKRWIYDTSKLDSGVPARFSGSGSGTSYSLTISSMEAEDAATYYCHQRGSYTFGGGTKLEIK",
    "Experimental result": "16%"
  },
  {
    "Binder": "B4 VHv4/VKv3 antibody (antibody, V domains shown) VH: QVQLEQPGAEVVKPGASVKVSCKTSGYTFTSNWMHWVKQTPGKGLEWIGEIDPSDSYTNYNQKFDGKAKLTVDKSSSTAYMEVSDLTAEDSATYYCARGSNPYYYAMDYWGQGTSVTVSS VL: QIVLTQSPATLSASPGEKATMTCSASSGANYMHWYQQKPGTSPKRWIYDTSKLASGVPARFSGSGSGTSYSLTIESMEAEDAATYYCHQRGSYTFGGGTKLEIK",
    "Experimental result": "16%"
  }
]

Measured values drawn from patent US20190241671A1 for this set.
